Test description: Preliminary pharmacokinetic evaluation
Format: in vivo, mice
Study conditions: mouse, in vivo, po, 10 mg/kg
Endpoint name: half-life

- Query smiles: "COC1=CC(=O)O[C@@H](/C=C/c2ccccc2)C1"
  Result: "< 40 min"

====

Test system: TNF-α secretion by LPS-stimulated THP-1 cells
Test description: TNF-α secretion assay in LPS-stimulated THP-1 cells
Format: cell-based, human
Study conditions: Homo sapiens, THP-1, read-out: % Inhibition of TNF-α secretion
Label scheme for inhibition at 100 µg/mL: lower than 40% is -1, 40% and above is 1.

- Molecule: "COC1=CC(=O)O[C@@H](CCc2ccc3c(c2)OCO3)C1 [Compound 3, dihydromethysticin]"
  Class assignment: -1
- Molecule: "COC1=CC(=O)O[C@@H](/C=C/c2ccccc2)C1 [Compound 1, kavain]"
  Class assignment: 1
- Molecule: "COC(=O)/C=C(\\CC(O)c1ccc(-c2ccccc2)cc1)OC (centres unmarked) [Compound 16]"
  Class assignment: 1
- Molecule: "COC1=CC(=O)OC(c2ccc(-c3ccccc3)cc2)C1 (centres unmarked) [Compound 15]"
  Class assignment: -1
- Molecule: "COC1=CC(=O)O[C@@H](/C=C/c2ccc3c(c2)OCO3)C1 [Compound 4, methysticin]"
  Class assignment: 1

====

Test description: Solubility
Type: physicochemical
Study conditions: PBS buffer, pH 7, aqueous buffer

- Query smiles: "COC1=CC(=O)O[C@@H](/C=C/c2ccccc2)C1"
  solubility: "> 500 µM"

====

Test description: Preliminary pharmacokinetic evaluation
Type: in vivo, mice
Study conditions: mouse, in vivo, iv, 1 mg/kg

- Query smiles: "COC1=CC(=O)O[C@@H](/C=C/c2ccccc2)C1"
  half-life: "< 15 min"
